# measurement.target: 5-HT7 serotoninergic receptors (Homo sapiens)
# Sequence (P34969 whole entry): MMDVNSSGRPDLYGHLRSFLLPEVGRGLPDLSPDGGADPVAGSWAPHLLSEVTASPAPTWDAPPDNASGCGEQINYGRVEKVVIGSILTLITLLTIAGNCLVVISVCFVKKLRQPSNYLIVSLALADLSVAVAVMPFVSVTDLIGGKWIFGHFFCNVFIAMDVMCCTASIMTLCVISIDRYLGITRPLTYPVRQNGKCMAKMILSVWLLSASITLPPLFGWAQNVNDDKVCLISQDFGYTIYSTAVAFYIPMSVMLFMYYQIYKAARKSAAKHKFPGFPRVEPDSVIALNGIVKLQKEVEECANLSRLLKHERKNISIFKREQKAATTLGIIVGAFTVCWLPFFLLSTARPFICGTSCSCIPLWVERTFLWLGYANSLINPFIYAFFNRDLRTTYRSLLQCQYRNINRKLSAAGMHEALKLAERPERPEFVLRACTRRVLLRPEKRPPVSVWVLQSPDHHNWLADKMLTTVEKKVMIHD
# run.description: Cellular functional assay, 5-HT7 serotoninergic receptors
# Assay type: cell-based
# test.conditions: antagonist mode
parameter: 5-HT7 antag [%] (%)
The response must be a number in % with no trailing unit.

Answered cases to consult:
molecule	measurement.target	recorded.measurement
Cc1cccc(S(=O)(=O)NC2CN(CCOc3cccc4c3OCCO4)C2)c1 [Compound 93]	5-HT7 serotoninergic receptors (Homo sapiens)	76
O=S(=O)(NC1CCN(CCOc2cccc3[nH]ccc23)CC1)c1ccccc1 [Compound 55]	5-HT7 serotoninergic receptors (Homo sapiens)	48
O=S(=O)(NC1CN(CCOc2cccc3c2OCCO3)C1)c1cccc2ccccc12 [Compound 94]	5-HT7 serotoninergic receptors (Homo sapiens)	68

Give 5-HT7 antag [%] for O=S(=O)(NC1CN(CCOc2cccc3c2OCCO3)C1)c1ccc(Cl)cc1 [Compound 92]
69

----------
# measurement.target: 5-HT6 receptor (Homo sapiens, UniProt P50406)
# Construct: purchased PerkinElmer
# Sequence (P50406 whole entry): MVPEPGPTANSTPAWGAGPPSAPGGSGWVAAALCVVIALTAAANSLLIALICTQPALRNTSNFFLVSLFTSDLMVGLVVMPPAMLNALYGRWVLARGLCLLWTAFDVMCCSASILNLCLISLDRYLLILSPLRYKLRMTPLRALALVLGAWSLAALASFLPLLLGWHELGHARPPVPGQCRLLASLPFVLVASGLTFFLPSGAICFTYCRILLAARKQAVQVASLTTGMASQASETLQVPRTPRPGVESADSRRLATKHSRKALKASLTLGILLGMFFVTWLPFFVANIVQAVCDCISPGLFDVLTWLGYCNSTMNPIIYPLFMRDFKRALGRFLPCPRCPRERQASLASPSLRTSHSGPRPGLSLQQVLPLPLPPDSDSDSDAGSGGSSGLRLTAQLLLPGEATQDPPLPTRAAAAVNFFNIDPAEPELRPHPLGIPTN
# run.description: Radioligand binding assay, serotoninergic 5-HT6 receptors;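 also: test compound at 1 µM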
# test.conditions: binding assay result in %, Table 5a
Binary call on 5-HT6 [%] with cut-off 70%: strictly below means label 1, and equality or higher means label 0.

Study these solved cases before continuing.
compound	discrete.label
O=S(=O)(NC1CCN(CCOc2cccc3ccccc23)C1)c1cccc(O)c1 (centres unmarked)	label 0
O=S(=O)(NCC1CCN(CCOc2cccc3[nH]ccc23)CC1)c1ccc2ccccc2c1	label 0
O=S(=O)(NC1CCN(CCCc2noc3cc(F)ccc23)CC1)c1ccc2ccccc2c1	label 0
O=S(=O)(NC1CCN(CCOc2cccc3c2OCCO3)CC1)c1cccc2ccccc12	label 1
Cc1cccc(S(=O)(=O)NC2CCN(CCOc3cccc4c3OCCO4)C2)c1 (centres unmarked)	label 1

Lab note: confirm whether the reported 5-HT6 [%] for this compound is below 70%, equality not counting. compound: O=S(=O)(NC1CN(CCOc2cccc3c2OCCO3)C1)c1cccc2ccccc12
label 1

----------
# measurement.target: dopaminergic receptors D3 (Homo sapiens)
# Sequence (P35462 whole entry): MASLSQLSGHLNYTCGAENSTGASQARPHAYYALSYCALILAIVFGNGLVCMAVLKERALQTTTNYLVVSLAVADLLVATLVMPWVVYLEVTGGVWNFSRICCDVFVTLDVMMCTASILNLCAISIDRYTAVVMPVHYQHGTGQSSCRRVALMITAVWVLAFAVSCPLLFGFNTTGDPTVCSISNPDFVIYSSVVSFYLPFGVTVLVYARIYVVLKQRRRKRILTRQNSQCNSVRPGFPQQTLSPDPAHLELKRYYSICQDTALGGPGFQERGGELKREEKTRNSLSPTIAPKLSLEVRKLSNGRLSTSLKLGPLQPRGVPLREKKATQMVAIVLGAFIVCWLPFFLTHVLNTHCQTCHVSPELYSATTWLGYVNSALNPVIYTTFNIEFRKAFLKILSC
# run.description: Radioligand binding assay, dopaminergic D3 receptors
# test.conditions: test compound 1×10^−6 M
parameter: inhibition at 1 µM (%)
Quick reminder: number only, in %, skip the unit.

Examples from the recorded data:
molecule	measurement.units	inhibition at 1 µM
Cc1cc(S(=O)(=O)NC2CCN(CCCc3noc4cc(F)ccc34)C2)c(C)s1 (stereo not drawn)	%	92
O=S(=O)(NC1CN(CCOc2cccc3[nH]ccc23)C1)c1cccc(Cl)c1	%	97
Cc1cc(S(=O)(=O)NCC2CCN(CCCc3noc4cc(F)ccc34)C2)c(C)s1 (stereo not drawn)	%	44
O=S(=O)(NC1CN(CCOc2cccc3[nH]ccc23)C1)c1cccc2ccccc12	%	106
O=S(=O)(NCC1CCN(CCOc2cccc3c2OCCO3)C1)c1cccc(F)c1 (stereo not drawn)	%	35
Cn1ccc2c(S(=O)(=O)NCC3CN(CCOc4cccc5ccccc45)C3)cccc21	%	98
CC(C)(C)c1ccc(S(=O)(=O)NCC2CN(CCCc3noc4cc(F)ccc34)C2)cc1	%	58
O=S(=O)(NC1CCN(CCOc2cccc3[nH]ccc23)C1)c1cccc2ccccc12 (stereo not drawn)	%	99

Dear colleague, please send me the reported inhibition at 1 µM for O=S(=O)(NCC1CN(CCCc2noc3cc(F)ccc23)C1)c1cc2ccccc2s1 when you can.
61

Please report the measured inhibition at 1 µM for O=S(=O)(NCC1CCN(CCCc2noc3cc(F)ccc23)C1)c1cccc2ccccc12 (stereo not drawn)
76

Give me measured inhibition at 1 µM, please, for this molecule: O=S(=O)(NC1CCN(CCCc2noc3cc(F)ccc23)C1)c1cccc2ccccc12 (stereo not drawn)
69

Fill in inhibition at 1 µM for record Cn1ccc2cc(S(=O)(=O)NCC3CCN(CCOc4cccc5ccccc45)C3)ccc21 (stereo not drawn)
81

Consider the molecule Cc1ccc(S(=O)(=O)NC2CCN(CCCc3noc4cc(F)ccc34)C2)cc1 (stereo not drawn) . State its measured inhibition at 1 µM.
34

Return value of inhibition at 1 µM for input O=S(=O)(NCC1CN(CCOc2cccc3ccccc23)C1)c1cccc2ccccc12 , no commentary.
94

Answer with the recorded inhibition at 1 µM of Cc1c(S(=O)(=O)N[C@H]2CCN(CCCc3noc4cc(F)ccc34)C2)sc2ccc(Cl)cc12 only.
99

Fill in inhibition at 1 µM for record O=S(=O)(NC1CCN(CCCc2noc3cc(F)ccc23)CC1)c1ccc2cc(Cl)ccc2c1
59

Give the reported inhibition at 1 µM for this molecule. O=S(=O)(NC1CCN(CCOc2cccc3[nH]ccc23)C1)c1ccc2ccccc2c1 (stereo not drawn)
105

Output inhibition at 1 µM of O=S(=O)(NCC1CN(CCOc2cccc3ccccc23)C1)c1csc2ccccc12
99

Provide inhibition at 1 µM value for the following molecule: O=S(=O)(NC1CCN(CCCc2c[nH]c3ccc(F)cc23)C1)c1ccc(F)cc1 (stereo not drawn)
86

Please give measured inhibition at 1 µM of the following entry: O=S(=O)(NC1CCN(CCCc2c[nH]c3ccc(Cl)cc23)C1)c1ccc(F)cc1 (stereo not drawn)
76

Output inhibition at 1 µM of O=S(=O)(NCC1CN(CCOc2cccc3c2OCCO3)C1)c1ccc(F)cc1
45

Please indicate inhibition at 1 µM recorded for O=S(=O)(NC1CCN(CCCc2noc3cc(F)ccc23)C1)c1cccc(C(F)(F)F)c1 (stereo not drawn)
14

Quick one: give measured inhibition at 1 µM for O=S(=O)(NCC1CN(CCCc2noc3cc(F)ccc23)C1)c1ccc(Cl)cc1
57
